molecular target: human B1R receptor (bradykinin 1 receptor) (Homo sapiens, UniProt P46663); construct: host or cells: CHO K1 cells (hB1R cells); assay: FLIPR Ca2+ assay (Fluo-4) on CHO K1 cells stably transfected with the human B1R gene; % activation and % inhibition at 10 μM; format: cell-based; conditions: CHO-K1, test substance 10 μM; CHO K1 hB1R cells; Ca2+ inflow after 0.5 nM Lys-Des-Arg9-bradykinin; read-out: B1R antagonism, human [10 μM] % inhibition
Sequence (P46663 whole entry): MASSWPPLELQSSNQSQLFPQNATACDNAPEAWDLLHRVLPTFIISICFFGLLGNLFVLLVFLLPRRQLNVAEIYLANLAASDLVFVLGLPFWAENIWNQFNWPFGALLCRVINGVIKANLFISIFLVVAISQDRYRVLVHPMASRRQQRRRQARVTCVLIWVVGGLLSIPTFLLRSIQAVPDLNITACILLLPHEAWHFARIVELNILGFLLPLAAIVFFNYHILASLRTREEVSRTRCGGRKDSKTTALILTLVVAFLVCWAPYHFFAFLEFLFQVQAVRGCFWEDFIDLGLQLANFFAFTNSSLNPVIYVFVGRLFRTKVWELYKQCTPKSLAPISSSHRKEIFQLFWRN
observable: inhibition at 10 µM (%)
Numeric only. Scale: %

Field: example entries. Status: answers known.
O=C(COCC1CCCCN1S(=O)(=O)c1cccc(C(F)(F)F)c1)N1CCC(O)(Cc2ccccc2)CC1 (stereo not shown) : 21
Cc1cc(S(=O)(=O)N2CCCCC2CCC(=O)N2CCC(O)(c3ccccn3)CC2)c(C)cc1Cl (stereo not shown) : 82.6
COc1cc(C)c(S(=O)(=O)N(C)CCOCC(=O)N2CCC(O)(c3cccc(F)c3)CC2)c(C)c1 : 104

Enter reported inhibition at 10 µM observed with human B1R receptor (bradykinin 1 receptor) (Homo sapiens, UniProt P46663) for COc1cc(C)c(S(=O)(=O)N2CCCC2COCC(=O)N2CCC(O)(c3ccc(Br)cc3)CC2)c(C)c1 (stereo not shown) 97.9

Enter reported inhibition at 10 µM observed with human B1R receptor (bradykinin 1 receptor) (Homo sapiens, UniProt P46663) for O=C(COC1CCCN(S(=O)(=O)c2ccccc2)C1)N1CCC(O)(c2ccccn2)CC1 (stereo not shown) -9.71

Enter reported inhibition at 10 µM observed with human B1R receptor (bradykinin 1 receptor) (Homo sapiens, UniProt P46663) for `COc1cc(C)c(S(=O)(=O)N(C)CCOCCC(=O)N2CCC(O)(c3ccccc3)CC2)c(C)c1` 70.7

Enter reported inhibition at 10 µM observed with human B1R receptor (bradykinin 1 receptor) (Homo sapiens, UniProt P46663) for O=C(COCC1CCN(S(=O)(=O)c2c(Cl)cc(Cl)cc2Cl)C1)N1CCC(O)(c2ccc(Cl)cc2)CC1 (stereo not shown) 54.1

* * *

target: B1R receptor of the rat (bradykinin 1 receptor) (Rattus norvegicus); construct: host or cells: CHO K1 cells (rB1R cells); assay: FLIPR Ca2+ assay (Fluo-4) on CHO K1 cells stably transfected with the B1R gene of the rat; % activation and % inhibition at 10 μM; format: cell-based; conditions: CHO-K1, test substance 10 μM; CHO K1 rB1R cells; Ca2+ inflow after 100 nM Des-Arg9-bradykinin; read-out: B1R antagonism, rat [10 μM] % inhibition
inhibition at 10 µM for assorted compounds
Numeric only. Scale: %

CCN(CCOCC(=O)N1CCC(O)(Cc2ccccc2)CC1)S(=O)(=O)c1c(C)cc(OC)c(C)c1C : 102
O=C(COCC1CCCN1S(=O)(=O)c1c(Cl)cccc1Cl)N1CCC(O)(c2cccnc2)CC1 (stereo not shown) : 96.4
O=C(COC1CCN(S(=O)(=O)c2c(Cl)cc(Cl)cc2Cl)C1)N1CCC(O)(Cc2ccccc2)CC1 (stereo not shown) : 82.5

Kindly consider the entry below.
Consider the compound shown here: O=C(COCC1CCCN1S(=O)(=O)c1cc(Cl)sc1Cl)N1CCC(O)(c2ccc(Br)cc2)CC1 (stereo not shown) What is its recorded inhibition at 10 µM? 102

* * *

Biological target: B1R receptor of the rat (bradykinin 1 receptor) (Rattus norvegicus)
Construct: host or cells: CHO K1 cells (rB1R cells)
Sequence (P97583 1-337): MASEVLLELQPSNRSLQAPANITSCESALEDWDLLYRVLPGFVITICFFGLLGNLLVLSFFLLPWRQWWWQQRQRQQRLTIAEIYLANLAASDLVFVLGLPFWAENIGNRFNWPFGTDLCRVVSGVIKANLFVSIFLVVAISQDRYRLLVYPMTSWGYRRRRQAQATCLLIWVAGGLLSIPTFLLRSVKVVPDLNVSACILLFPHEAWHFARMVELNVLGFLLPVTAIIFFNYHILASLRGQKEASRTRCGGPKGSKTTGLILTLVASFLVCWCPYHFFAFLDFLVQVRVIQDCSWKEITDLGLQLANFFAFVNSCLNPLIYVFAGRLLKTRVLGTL
Experiment: FLIPR Ca2+ assay (Fluo-4) on CHO K1 cells stably transfected with the B1R gene of the rat; % activation and % inhibition at 10 μM
Type: cell-based
Settings: CHO-K1, test substance 10 μM; CHO K1 rB1R cells; Ca2+ inflow after 100 nM Des-Arg9-bradykinin; read-out: B1R antagonism, rat [10 μM] % inhibition
inhibition at 10 µM for assorted compounds
Numeric only. Scale: %

COc1cc(C)c(S(=O)(=O)N(C)CCCCC(=O)N2CCC(O)(c3cccnc3)CC2)c(C)c1 : 57.1
O=C(COCC1CCc2ccccc2N1S(=O)(=O)c1ccc(Cl)c(Cl)c1)N1CCC(O)(c2cccc(F)c2)CC1 (centres unmarked) : 77.3
CN(CCOCC(=O)N1CCC(O)(c2ccc(Cl)cc2)CC1)S(=O)(=O)c1cc(F)cc(F)c1 : 6.49
Cc1ccc(F)cc1S(=O)(=O)N(C)CCOCC(=O)N1CCC(O)(c2ccc(Cl)cc2)CC1 : 86.4
Cc1cc(S(=O)(=O)N(C)CCOCC(=O)N2CCC(O)(c3ccccc3)CC2)c(C)cc1Cl : 77.2

Consider the compound shown here: `CN(c1ccccc1CCC(=O)N1CCC(O)(c2cccnc2)CC1)S(=O)(=O)c1ccc(Cl)c(Cl)c1` What is its recorded inhibition at 10 µM? 91.4

Consider the compound shown here: `COc1cc(C)c(S(=O)(=O)N(CCOCC(=O)N2CCC(O)(c3cccnc3)CC2)CC(C)C)c(C)c1C` What is its recorded inhibition at 10 µM? 101

Consider the compound shown here: `COc1cc(C)c(S(=O)(=O)N(CCOCC(=O)N2CCC(O)(Cc3ccccc3)CC2)CC2CC2)c(C)c1C` What is its recorded inhibition at 10 µM? 99.2

Consider the compound shown here: `CN(CCOCC(=O)N1CCC(O)(c2cccnc2)CC1)S(=O)(=O)c1ccc(Cl)s1` What is its recorded inhibition at 10 µM? 16.1

Consider the compound shown here: `CN(CCOCC(=O)N1CCC(O)(c2ccccn2)CC1)S(=O)(=O)c1ccc(OC(F)(F)F)cc1` What is its recorded inhibition at 10 µM? 17.1

Consider the compound shown here: O=C(COCC1CCCN1S(=O)(=O)c1c(Cl)cc(C(F)(F)F)cc1Cl)N1CCC(O)(c2ccc(Cl)c(C(F)(F)F)c2)CC1 (centres unmarked) What is its recorded inhibition at 10 µM? 104

* * *

biological target: human B1R receptor (bradykinin 1 receptor) (Homo sapiens); construct: host or cells: CHO K1 cells (hB1R cells); assay: FLIPR Ca2+ assay (Fluo-4) on CHO K1 cells stably transfected with the human B1R gene; % activation and % inhibition at 10 μM; format: cell-based; settings: CHO-K1, test substance 10 μM; CHO K1 hB1R cells; Ca2+ inflow after 0.5 nM Lys-Des-Arg9-bradykinin; read-out: B1R antagonism, human [10 μM] % inhibition
observable: inhibition at 10 µM (%)
Numeric only. Scale: %

Field: example entries. Status: answers known.
O=C(COCC1CCCN1S(=O)(=O)c1ccc(Cl)c(Cl)c1)N1CCC(O)(c2cccnc2)CC1 (stereo not shown) [Example 19] : 23.2
O=C(COCC1CCCN1S(=O)(=O)c1c(Cl)cccc1Cl)N1CCC(O)(c2ccc(Cl)c(C(F)(F)F)c2)CC1 (stereo not shown) [Example 218] : 103
COc1cc(C)c(S(=O)(=O)N2CCC(OCCC(=O)N3CCC(O)(c4ccc(Br)cc4)CC3)C2)c(C)c1 (stereo not shown) [Example 187] : 99.9
COc1cc(C)c(S(=O)(=O)N(C)CCOCCC(=O)N2CCC(O)(Cc3ccccc3)CC2)c(C)c1 [Example 277] : 86.8
O=C(CCC1CCCCN1S(=O)(=O)c1ccc(Cl)cc1Cl)N1CCC(O)(c2cccnc2)CC1 (stereo not shown) [Example 118] : 101

Enter reported inhibition at 10 µM observed with human B1R receptor (bradykinin 1 receptor) (Homo sapiens) for O=C(COC1CCN(S(=O)(=O)c2cccc(C(F)(F)F)c2)C1)N1CCC(O)(c2ccccn2)CC1 (stereo not shown) [Example 59] -24

Enter reported inhibition at 10 µM observed with human B1R receptor (bradykinin 1 receptor) (Homo sapiens) for COc1cc(C)c(S(=O)(=O)N2CCC(CCOCC(=O)N3CCC(O)(Cc4ccccc4)CC3)CC2)c(C)c1C [Example 14] 43.2

* * *

target: human B1R receptor (bradykinin 1 receptor) (Homo sapiens); construct: host or cells: CHO K1 cells (hB1R cells); assay: FLIPR Ca2+ assay (Fluo-4) on CHO K1 cells stably transfected with the human B1R gene; % activation and % inhibition at 10 μM; format: cell-based; settings: CHO-K1, test substance 10 μM; CHO K1 hB1R cells; Ca2+ inflow after 0.5 nM Lys-Des-Arg9-bradykinin; read-out: B1R antagonism, human [10 μM] % inhibition
observable: inhibition at 10 µM (%)
Numeric only. Scale: %

COc1cc(C)c(S(=O)(=O)N2CCC(COCC(=O)N3CCC(O)(c4cccc(C(F)(F)F)c4)CC3)C2)c(C)c1 (stereo not shown) : 102
COc1cc(C)c(S(=O)(=O)N2CCCCC2COCC(=O)N2CCC(O)(c3ccccc3)CC2)c(C)c1 (stereo not shown) : 105

Enter reported inhibition at 10 µM observed with human B1R receptor (bradykinin 1 receptor) (Homo sapiens) for O=C(COCC1Cc2ccccc2CN1S(=O)(=O)c1ccc(Cl)c(Cl)c1)N1CCC(O)(c2ccccc2)CC1 (stereo not shown) 13.7

Enter reported inhibition at 10 µM observed with human B1R receptor (bradykinin 1 receptor) (Homo sapiens) for O=C(COC1CCN(S(=O)(=O)c2ccc(Cl)cc2Cl)C1)N1CCC(O)(c2ccccn2)CC1 (stereo not shown) 28

Enter reported inhibition at 10 µM observed with human B1R receptor (bradykinin 1 receptor) (Homo sapiens) for `CN(CCOCC(=O)N1CCC(O)(c2ccccn2)CC1)S(=O)(=O)c1cc(F)ccc1F` -0.46

Enter reported inhibition at 10 µM observed with human B1R receptor (bradykinin 1 receptor) (Homo sapiens) for COc1ccc(S(=O)(=O)N2CCCC2COCC(=O)N2CCC(O)(c3ccccn3)CC2)cc1 (stereo not shown) 1.84

Enter reported inhibition at 10 µM observed with human B1R receptor (bradykinin 1 receptor) (Homo sapiens) for O=C(COCC1CCCCN1S(=O)(=O)c1ccccc1C(F)(F)F)N1CCC(O)(c2cccc(C(F)(F)F)c2)CC1 (stereo not shown) 101
